Give Activity for every item shown.
# Species: Homo sapiens
# protocol: Inhibition of P-gp in human MCF7/ADR cells assessed as assessed as potentiation of doxorubicin-induced antiproliferative activity by measuring doxorubicin antiproliferative activity at 20 uM after 2 days by MTT assay
# Assay type: cell-based
# Design: scale not given: the % may be the effect or the level left
Give bare numbers, in %.

Below, 3 compounds whose answers are already recorded.
1) COc1ccc(CCN(C)CCCC(C#N)(c2ccc(OC)c(OC)c2)C(C)C)cc1OC (centres undefined) [VERAPAMIL]; 52.5
2) COc1ccc(-c2ccc(C(=O)N3CCc4cc(OC)c(OC)cc4C3)o2)cc1; 97.8
3) COc1cc2c(cc1OC)CN(C(=O)c1ccc(-c3ccc(Br)cc3)o1)CC2; 79.8

Okay, next one:
Consider the compound COc1cc2c(cc1OC)CN(C(=O)c1ccc(-c3ccc(Cl)cc3)o1)CC2 and give its measured Activity.
89.6
